B1: Chromodomain-helicase-DNA-binding protein 5, residues 338 to 390; numbered along this chain, Q8TDI0 (parent)
chain: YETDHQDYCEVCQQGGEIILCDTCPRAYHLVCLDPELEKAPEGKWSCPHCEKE

Variants of: B1
assay text: abundance fitness (aPCA) (normalised: wild type 0, dead -1); higher = more abundant; growth selection in yeast, the domain comes from the species named
condition description: Homo sapiens

{"mutations": "C50G", "abundance fitness": -0.55}
{"mutations": "L37E", "abundance fitness": -0.566}
{"mutations": "K52T", "abundance fitness": 0.473}
{"mutations": "E17D", "abundance fitness": -0.182}
{"mutations": "K39M", "abundance fitness": 0.191}
{"mutations": "T23Q", "abundance fitness": -0.15}
{"mutations": "T23I", "abundance fitness": -0.135}
{"mutations": "E51N", "abundance fitness": 0.086}
{"mutations": "A40G", "abundance fitness": -0.168}
{"mutations": "L30Y", "abundance fitness": 0.193}
{"mutations": "A27Q", "abundance fitness": 0.171}
